Answer each item with its documented Relative colony forming ability, SV6 groEL673.
# Tested on: E. coli SV6 groEL673
# assay method text: In vivo complementation of ts groEL673 at 43° C.
# Type: cell-based
# particulars: plasmids pJC, relative to growth at 30° C.

sht-GroEL(193-335): short histidine tail minichaperone, GroEL residues 193-335 (protein, UniProt P0A6F5 193-335, looked up, fragment, short His tag) MQFDRGYLSPYFINKPETGAVELESPFILLADKKISNIREMLPVLEAVAKAGKPLLIIAEDVEGEALATLVVNTMRGIVKVAAVKAPGFGDRRKAMLQDIATLTGGTVISEEIGMELEKATLEDLGQAKRVVINKDTTTIIDG
0.03-0.05
sht-GroEL(191-345): short histidine tail minichaperone, GroEL residues 191-345 (protein, UniProt P0A6F5 191-345, looked up, fragment, short His tag) EGMQFDRGYLSPYFINKPETGAVELESPFILLADKKISNIREMLPVLEAVAKAGKPLLIIAEDVEGEALATLVVNTMRGIVKVAAVKAPGFGDRRKAMLQDIATLTGGTVISEEIGMELEKATLEDLGQAKRVVINKDTTTIIDGVGEEAAIQGR
0.07-0.09
sht-GroEL(191-376): histidine-tagged (short histidine tail; sht) minichaperone GroEL(191-376) (protein, UniProt P0A6F5 191-376, looked up, fragment, short His tag) EGMQFDRGYLSPYFINKPETGAVELESPFILLADKKISNIREMLPVLEAVAKAGKPLLIIAEDVEGEALATLVVNTMRGIVKVAAVKAPGFGDRRKAMLQDIATLTGGTVISEEIGMELEKATLEDLGQAKRVVINKDTTTIIDGVGEEAAIQGRVAQIRQQIEEATSDYDREKLQERVAKLAGGV
<10^−4

Then there is this molecule:
Documented Relative colony forming ability, SV6 groEL673 of GroES(1-97): co-chaperone of GroEL, seven membered ring of 10 kD subunits (protein, UniProt P0A6F9 1-97, looked up) Co-chaperonin GroES: MNIRPLHDRVIVKRKEVETKSAGGIVLTGSAAAKSTRGEVLAVGNGRILENGEVKPLDVKVGDIVIFNDGYGVKSEKIDNEEVLIMSESDILAIVEA : <10^−4
